Percent Effect listing for selected molecules.
molecular target: Ubiquitin-activating enzyme e1, putative (Leishmania donovani (strain BPK282A1)) (UniProt E9BSI1); test: Leishmania donovani Ubiquitin Activating Enzyme (LdE1); format: functional; design: scale not given: direction of the effect not stated beside the values; conditions: 30 µM
Sequence (E9BSI1 as listed by the source): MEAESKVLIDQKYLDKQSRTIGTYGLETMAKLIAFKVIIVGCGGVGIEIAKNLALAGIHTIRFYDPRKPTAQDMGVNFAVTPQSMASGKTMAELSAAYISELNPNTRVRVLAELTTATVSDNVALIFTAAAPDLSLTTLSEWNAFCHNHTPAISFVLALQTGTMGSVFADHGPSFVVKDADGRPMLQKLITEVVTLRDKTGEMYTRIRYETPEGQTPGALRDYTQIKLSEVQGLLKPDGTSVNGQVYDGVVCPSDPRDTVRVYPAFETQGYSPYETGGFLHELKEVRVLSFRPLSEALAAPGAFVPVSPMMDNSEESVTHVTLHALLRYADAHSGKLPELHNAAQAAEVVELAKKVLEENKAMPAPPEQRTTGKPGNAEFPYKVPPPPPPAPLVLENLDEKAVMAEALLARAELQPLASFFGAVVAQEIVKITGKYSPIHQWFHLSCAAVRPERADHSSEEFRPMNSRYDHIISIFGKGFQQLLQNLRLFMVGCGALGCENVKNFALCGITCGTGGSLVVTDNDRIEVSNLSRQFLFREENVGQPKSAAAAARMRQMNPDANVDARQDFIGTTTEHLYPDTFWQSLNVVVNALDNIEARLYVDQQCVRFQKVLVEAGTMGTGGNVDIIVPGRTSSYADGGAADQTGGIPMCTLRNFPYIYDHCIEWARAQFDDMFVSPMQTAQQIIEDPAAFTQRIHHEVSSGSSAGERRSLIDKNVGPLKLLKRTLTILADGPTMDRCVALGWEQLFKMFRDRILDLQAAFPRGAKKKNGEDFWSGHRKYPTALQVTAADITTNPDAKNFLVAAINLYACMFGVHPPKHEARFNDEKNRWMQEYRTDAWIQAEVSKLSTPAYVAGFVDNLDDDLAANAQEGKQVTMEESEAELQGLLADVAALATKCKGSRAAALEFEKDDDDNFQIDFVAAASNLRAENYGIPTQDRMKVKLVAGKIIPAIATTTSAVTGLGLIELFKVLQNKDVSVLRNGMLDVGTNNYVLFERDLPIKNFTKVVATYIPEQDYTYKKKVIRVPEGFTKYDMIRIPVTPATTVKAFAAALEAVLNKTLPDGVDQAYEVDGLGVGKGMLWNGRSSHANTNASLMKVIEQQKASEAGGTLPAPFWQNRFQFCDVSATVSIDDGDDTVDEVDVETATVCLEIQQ
Potency and affinity values are given separately.

[
  {
    "molecule": "O=C(c1ccc(C(F)(F)F)nc1)N1CCCC(n2cncn2)C1 (stereo unspecified)",
    "Percent Effect": "-5.13%"
  },
  {
    "molecule": "CC(C(=O)Nc1ncccn1)N1CCCN(c2nccs2)CC1 (stereo unspecified)",
    "Percent Effect": "15.4%"
  },
  {
    "molecule": "CN(C)CC1CN(c2ccc(C#N)cn2)CCO1 (stereo unspecified)",
    "Percent Effect": "-5.26%"
  },
  {
    "molecule": "Cc1nccc(N2CCC(=O)N(Cc3ccc(F)cc3)C(C(C)C)C2)n1 (stereo unspecified)",
    "Percent Effect": "1.39%"
  },
  {
    "molecule": "O=C(O)[C@@H]1CN(C(=O)c2cc(C3CC3)n[nH]2)C[C@H]1c1cccc(F)c1",
    "Percent Effect": "16.4%"
  },
  {
    "molecule": "Cc1nc(C2CCCN2C(=O)c2cnns2)no1 (stereo unspecified)",
    "Percent Effect": "13.2%"
  },
  {
    "molecule": "Cc1cnn(CC2CCN(CC(O)COc3ccc(F)cc3)CC2)c1 (stereo unspecified)",
    "Percent Effect": "2.6%"
  },
  {
    "molecule": "COc1ccc(COCC(O)CNC(=O)c2cnc(C)cn2)cc1 (stereo unspecified)",
    "Percent Effect": "-8.86%"
  },
  {
    "molecule": "Cc1ccc(N(CC(=O)c2ccc(Br)cc2)C2=NCCCCC2)cc1",
    "Percent Effect": "-55.3%"
  },
  {
    "molecule": "Cc1nc(CN2CCCC(CCc3c(F)cccc3F)C2)c[nH]1 (stereo unspecified)",
    "Percent Effect": "-13.5%"
  },
  {
    "molecule": "Cc1nc(-c2ccsc2)ccc1C(=O)NCCC1CCCO1 (stereo unspecified)",
    "Percent Effect": "0%"
  }
]

====

system: Trypanosoma cruzi; test: Trypanosoma cruzi phosphomannomutase and mannose-1-phosphate guanylyltransferase assay; format: functional; set-up: scale not given: direction of the effect not stated beside the values; conditions: 10 µM
Here the recorded Percent Effect is given for each entry.

[
  {
    "compound": "CCN(CC1CCCO1)C(=O)Nc1cc(C(=O)OC)ccc1F (stereo unspecified)",
    "Percent Effect [%]": -1.98
  },
  {
    "compound": "Cc1nc(CN2CCCC(CCc3ccc(F)cc3F)C2)c[nH]1 (stereo unspecified)",
    "Percent Effect [%]": 4.75
  },
  {
    "compound": "CNc1oc(-c2ccc(OC)c(S(=O)(=O)N3CCCCC3)c2)nc1C#N",
    "Percent Effect [%]": -5.7
  },
  {
    "compound": "O=C(CCCc1nnc(-c2ccccc2)o1)N1CCN(CCO)CC1",
    "Percent Effect [%]": -2.36
  },
  {
    "compound": "CCN1CC2(CCN(CCOCCO)CC2)CC(c2ccccc2)C1=O (stereo unspecified)",
    "Percent Effect [%]": 0.292
  },
  {
    "compound": "Cc1cccc(C2(NC(=O)CCN3C(=O)CCC3=O)CCCC2)c1",
    "Percent Effect [%]": 0.85
  }
]

====

target: Sialic acid-binding Ig-like lectin 9 (Homo sapiens); test: Hs-Siglec9 ALPHAscreen SOP 20170721; parameters: scale not given: direction of the effect not stated beside the values; conditions: 10 µM
measurement_label: Percent Effect (%)

[
  {
    "molecule": "COc1cc(CNCc2c(C)nn(C)c2N(C)C)ccn1",
    "unit_info": "%",
    "reported": 8.34
  },
  {
    "molecule": "Cc1cc(C)c2cc(CNCc3ccccc3)c3nn(C)c(=O)n3c2c1",
    "unit_info": "%",
    "reported": 8.69
  },
  {
    "molecule": "Cc1[nH]ncc1C(=O)N1CCN(CC(O)C(C)(C)C)CC1 (centres undefined)",
    "unit_info": "%",
    "reported": -6.77
  },
  {
    "molecule": "N#CCCCS(=O)(=O)N1CCCC1CC(=O)c1cccs1 (centres undefined)",
    "unit_info": "%",
    "reported": 2.31
  },
  {
    "molecule": "Cc1cnc(Nc2nccnc2C2CCN(C)CC2)s1",
    "unit_info": "%",
    "reported": -6.36
  },
  {
    "molecule": "O=C(CN1CCCC(Cn2cncn2)C1)NCCOc1ccccc1 (centres undefined)",
    "unit_info": "%",
    "reported": 2.29
  },
  {
    "molecule": "Cc1cccc(CCC(=O)N2CCOCC2c2c(C)n[nH]c2C)c1 (centres undefined)",
    "unit_info": "%",
    "reported": 6.45
  },
  {
    "molecule": "Cc1noc(C)c1C(=O)N1CC[C@H]2C[C@@H](c3ccncn3)O[C@@H]2C1",
    "unit_info": "%",
    "reported": 0.544
  },
  {
    "molecule": "COC(=O)C1CCN(C(=O)c2ccc(NS(C)(=O)=O)c(C)c2)CC1",
    "unit_info": "%",
    "reported": -1.94
  },
  {
    "molecule": "COc1cccc(CCC2CCCN(C(=O)C3=NN(C)C(=O)CC3)C2)c1 (centres undefined)",
    "unit_info": "%",
    "reported": -1.4
  },
  {
    "molecule": "COc1cccc(S(=O)(=O)N2CCC(O)(CN(C)C)C2)c1 (centres undefined)",
    "unit_info": "%",
    "reported": -1.76
  },
  {
    "molecule": "Cc1occc1C(=O)NCc1ccc(N2CCCC(C(N)=O)C2)cc1 (centres undefined)",
    "unit_info": "%",
    "reported": -3.46
  },
  {
    "molecule": "CCOc1ncccc1NC(=O)NCC(O)c1ccccc1OC (centres undefined)",
    "unit_info": "%",
    "reported": -4.05
  },
  {
    "molecule": "Cc1cc(CN2CCOC(CN(C)c3cccnn3)C2)no1 (centres undefined)",
    "unit_info": "%",
    "reported": -5.84
  },
  {
    "molecule": "COCCNC(=O)c1ccc(C)c(-n2cccc2)c1",
    "unit_info": "%",
    "reported": -4.12
  },
  {
    "molecule": "CC(CCc1ccccc1)NC(=O)Nc1cnn(CC(N)=O)c1 (centres undefined)",
    "unit_info": "%",
    "reported": 2.1
  },
  {
    "molecule": "O=C(c1cscn1)N1C[C@H]2CCCC(OCc3cccnc3)[C@H]2C1 (some centres undefined)",
    "unit_info": "%",
    "reported": 2.64
  },
  {
    "molecule": "Cc1cc(C(=O)NCc2ccc(N3CCCC(C(N)=O)C3)cc2)no1 (centres undefined)",
    "unit_info": "%",
    "reported": 2.55
  },
  {
    "molecule": "Cn1ccc(CN2CCC(NC(=O)Cc3ccccc3)CC2)cc1=O",
    "unit_info": "%",
    "reported": -5.06
  },
  {
    "molecule": "COCC1CN(C(=O)c2ccoc2C)Cc2nccn2C1 (centres undefined)",
    "unit_info": "%",
    "reported": -5.59
  },
  {
    "molecule": "CCC(=O)N1CCC(Cc2ccccc2-c2ccccc2)(C(N)=O)C1 (centres undefined)",
    "unit_info": "%",
    "reported": -2.64
  },
  {
    "molecule": "CC(C)n1ccnc1CN1CCCN(C(=O)c2cccnc2O)CC1",
    "unit_info": "%",
    "reported": -20.6
  },
  {
    "molecule": "COc1ccc(C2=CCN(C(=O)CN(C)Cc3ccoc3)CC2)cc1",
    "unit_info": "%",
    "reported": 5.81
  },
  {
    "molecule": "Cn1ccc(C(=O)N2CCN(c3cc(C#N)ccn3)CC2)cc1=O",
    "unit_info": "%",
    "reported": 26.1
  }
]

====

target: Arginase-2, mitochondrial (Homo sapiens) (UniProt P78540); assay: in vitro enzyme assay to detect the production of urea directly proportional to the activity of Arginase II; type: functional; parameters: scale not given: in the data most compounds retested in dose-response had high values; settings: 33.3 µM
Sequence (P78540 whole entry): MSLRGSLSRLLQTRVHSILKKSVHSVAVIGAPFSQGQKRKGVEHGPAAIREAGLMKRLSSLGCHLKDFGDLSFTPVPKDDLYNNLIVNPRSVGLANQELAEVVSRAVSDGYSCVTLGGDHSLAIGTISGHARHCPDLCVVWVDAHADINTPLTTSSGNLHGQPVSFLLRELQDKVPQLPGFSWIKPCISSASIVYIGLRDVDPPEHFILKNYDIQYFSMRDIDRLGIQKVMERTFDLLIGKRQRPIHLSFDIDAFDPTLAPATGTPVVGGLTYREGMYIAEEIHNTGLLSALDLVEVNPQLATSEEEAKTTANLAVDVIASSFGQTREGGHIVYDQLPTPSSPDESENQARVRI
Documented Percent Effect across a set of compounds
measurement_label: Percent Effect (%)

[
  {
    "compound": "CCc1ccc(S(=O)(=O)Nc2cn(C)cc(Br)c2=O)cc1",
    "target_system": "Arginase-2, mitochondrial (Homo sapiens) (UniProt P78540)",
    "measurement_label": "Percent Effect",
    "unit_info": "%",
    "reported": -0.952
  },
  {
    "compound": "O=C(c1cc(C2CC2)[nH]n1)N1CCN(Cc2ccsc2)CC1",
    "target_system": "Arginase-2, mitochondrial (Homo sapiens) (UniProt P78540)",
    "measurement_label": "Percent Effect",
    "unit_info": "%",
    "reported": 1.66
  },
  {
    "compound": "O=C(c1nn(-c2ccccc2F)cc1O)N1CCCC1",
    "target_system": "Arginase-2, mitochondrial (Homo sapiens) (UniProt P78540)",
    "measurement_label": "Percent Effect",
    "unit_info": "%",
    "reported": -0.185
  },
  {
    "compound": "Cc1cc(NC(=O)CN2CCOC(Cn3cccn3)C2)n(C)n1 (stereo unspecified)",
    "target_system": "Arginase-2, mitochondrial (Homo sapiens) (UniProt P78540)",
    "measurement_label": "Percent Effect",
    "unit_info": "%",
    "reported": -1.05
  },
  {
    "compound": "Cc1ccc(F)cc1C(=O)N1C[C@@H](CN2CCOCC2)[C@@H](CO)C1",
    "target_system": "Arginase-2, mitochondrial (Homo sapiens) (UniProt P78540)",
    "measurement_label": "Percent Effect",
    "unit_info": "%",
    "reported": 4.54
  },
  {
    "compound": "CC(=O)N1CCC2(CC1)C(=O)N(CC1CC1)c1ccccc12",
    "target_system": "Arginase-2, mitochondrial (Homo sapiens) (UniProt P78540)",
    "measurement_label": "Percent Effect",
    "unit_info": "%",
    "reported": 5.48
  }
]

These data points were gathered from ChEMBL document CHEMBL3988442.
